System: HCT116^norm cells
ASSAY_COMMENT: MTT proliferation assay, 72 hr (Example 6.2)
Format: cell-based, human
CONDITION_INFO: single agent, read-out: concentration required to achieve ~50% cell kill, used separately
Protocol: The human cancer cell lines; MCF7 (breast), HCT116 (colon) and A549 (lung) (Cancer Research UK, London, UK), were grown in either DMEM (Sigma) or RPMI (Sigma) media supplemented with 10% foetal bovine serum, 2 mM L-glutamine, 1% penicillin/streptomycin. To study the effect of each agent on cell growth, cells growing exponentially were added to 96-well plates at a density of 3×10^4/well. Drugs (0.1-100 μM) were then added to the wells, ensuring an equal volume of 200 μl across the plate. […]
PROPERTY: IC50 (µM)
Field format: number, assumed µM, no unit text.

Prompt: Please give the measured IC50 for this molecule: O=C1[O][Pt]2([NH][C@@H]3CCCC[C@H]3[NH]2)[O]C1=O
Completion: 4

---

Would you kindly list pIC50 for each of these molecules?
System: KM cells
ASSAY_COMMENT: MTT proliferation assay, 72 hr (Example 6.1)
Type: cell-based
CONDITION_INFO: Homo sapiens, KM (melanoma), 72 hours treatment, mean ± SD of at least 3 experiments
When answering, recall that pIC50 equals minus log10 of the concentration in mol/L, and write that number alone.

Prompt: Please give the measured pIC50 for this molecule: C[C@H]1[C@H](N2CCS(=O)(=O)CC2)O[C@@H]2O[C@@]3(C)CC[C@H]4[C@H](C)CC[C@@H]1[C@@]24OO3
Completion: 5.19

Prompt: Cool, now C[C@@H]1CC[C@H]2[C@@H](C)C(=O)O[C@@H]3O[C@@]4(C)CC[C@@H]1[C@]32OO4
Completion: 4.00

---

Test system: PANC1 cells
ASSAY_COMMENT: MTT proliferation assay, 72 hr (Example 6.1)
Assay type: cell-based, human
CONDITION_INFO: Homo sapiens, PANC-1; PANC1 (pancreas), 72 hours treatment, MTT; mean ± SD of at least 3 experiments
pIC50: −log10 of the molar value.
Would you kindly list pIC50 for each of these molecules?

Prompt: Please give the measured pIC50 for this molecule: C[C@@H]1CC[C@H]2[C@@H](C)C(=O)O[C@@H]3O[C@@]4(C)CC[C@@H]1[C@]32OO4
Completion: < 3.00

Prompt: Cool, now C[C@H]1[C@H](N2CCS(=O)(=O)CC2)O[C@@H]2O[C@@]3(C)CC[C@H]4[C@H](C)CC[C@@H]1[C@@]24OO3
Completion: < 3.00

---

Test system: HCT116^poly cells
ASSAY_COMMENT: MTT proliferation assay, 72 hr (Example 6.2)
Type: cell-based, human
CONDITION_INFO: HCT116^poly (polyploid extended-passage variant)
PROPERTY: IC50
Quick note: number first, unit second.

Prompt: Find the measured IC50: item O=C1[O][Pt]2([NH][C@@H]3CCCC[C@H]3[NH]2)[O]C1=O , target or system HCT116^poly cells.
Completion: 5.8 µM

---

Tested on: HCT116^norm cells
CONDITION_INFO: read-out: concentration required to achieve ~50% cell kill, ART and OXP used simultaneously, ART + OXP combination (ratio 1:2.5)
PROPERTY: IC50 (nM)
Field format: number, assumed nM, no unit text.

Prompt: Find the measured IC50: item O=C1[O][Pt]2([NH][C@@H]3CCCC[C@H]3[NH]2)[O]C1=O , target or system HCT116^norm cells.
Completion: 1600
